biological target: hERG (KCNH2) (Homo sapiens, UniProt Q12809); assay: in vitro; conditions: HEK293 cells that express hERG
Sequence (Q12809 whole entry): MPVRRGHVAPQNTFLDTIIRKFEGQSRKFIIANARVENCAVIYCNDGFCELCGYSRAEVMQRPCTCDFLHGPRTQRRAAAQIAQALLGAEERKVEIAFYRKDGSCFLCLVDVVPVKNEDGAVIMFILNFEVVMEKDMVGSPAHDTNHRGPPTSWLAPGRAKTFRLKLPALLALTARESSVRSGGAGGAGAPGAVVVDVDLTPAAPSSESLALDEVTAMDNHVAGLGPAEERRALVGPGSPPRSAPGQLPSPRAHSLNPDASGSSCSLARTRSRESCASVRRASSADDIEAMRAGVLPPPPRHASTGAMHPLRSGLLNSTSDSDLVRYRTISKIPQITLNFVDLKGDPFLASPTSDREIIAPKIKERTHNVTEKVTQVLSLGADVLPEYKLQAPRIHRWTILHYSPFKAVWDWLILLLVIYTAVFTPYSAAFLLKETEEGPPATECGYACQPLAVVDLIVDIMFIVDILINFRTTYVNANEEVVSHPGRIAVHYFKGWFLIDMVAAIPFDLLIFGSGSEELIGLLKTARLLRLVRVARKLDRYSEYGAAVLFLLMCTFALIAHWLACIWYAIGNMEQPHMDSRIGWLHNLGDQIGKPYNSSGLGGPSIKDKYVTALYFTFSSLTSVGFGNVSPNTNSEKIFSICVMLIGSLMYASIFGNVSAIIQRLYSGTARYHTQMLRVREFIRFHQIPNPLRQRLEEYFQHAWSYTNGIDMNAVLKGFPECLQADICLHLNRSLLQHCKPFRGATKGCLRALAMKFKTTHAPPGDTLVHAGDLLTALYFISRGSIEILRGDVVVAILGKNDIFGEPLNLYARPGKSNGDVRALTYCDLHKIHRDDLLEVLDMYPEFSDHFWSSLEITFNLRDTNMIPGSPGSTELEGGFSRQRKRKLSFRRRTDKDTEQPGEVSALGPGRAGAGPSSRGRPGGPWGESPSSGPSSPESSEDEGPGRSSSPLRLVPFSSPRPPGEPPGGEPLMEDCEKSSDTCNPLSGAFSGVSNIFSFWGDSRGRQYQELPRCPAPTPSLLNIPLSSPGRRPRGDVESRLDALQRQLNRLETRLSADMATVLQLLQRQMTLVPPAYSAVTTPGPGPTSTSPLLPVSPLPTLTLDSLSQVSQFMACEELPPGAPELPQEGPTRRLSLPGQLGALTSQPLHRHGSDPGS
Assay Metric: inhibition at 5 min, 3 µM

# Smiles Text, inhibition at 5 min, 3 µM
records = [
    ("Cc1ccc([C@H]2CC[C@@H](N3CC(NC(=O)CNc4n[nH]c5ccc(C(F)(F)F)cc45)C3)CC2)cn1", "23%"),
]

Attention now turns to another entry.
QUERY: // inhibition at 5 min, 3 µM lookup, key: COc1ccc([C@]2(O)CC[C@H](N3CC(NC(=O)CNc4n[nH]c5ccc(C(F)(F)F)cc45)C3)CC2)cn1
RESULT: 30%
